# tested-system: Strand Transfer (Human immunodeficiency virus type 1 group M subtype B)
# method: Integrase strand transfer inhibition
# Assay type: biochemical, HIV
IC50 reference

q: Enter reported IC50 observed with Strand Transfer (Human immunodeficiency virus type 1 group M subtype B) for CCOC(=O)[C@H](C)OP(=O)(CCN1CCN(C(=O)Oc2c3c(c(O)c4ncccc24)C(=O)N(Cc2ccc(F)cc2)C3)CC1)Oc1ccccc1 (stereo partly drawn)
a: < 1200 nM

Continuing:
q: Please tell me: IC50 of "COP(=O)(CCN1CCN(C(=O)Oc2c3c(c(O)c4ncccc24)C(=O)N(Cc2ccc(F)cc2)C3)CC1)OC" , system Strand Transfer (Human immunodeficiency virus type 1 group M subtype B)?
a: < 600 nM

q: Item: "CCOP(=O)(CN1CCN(C(=O)Oc2c3c(c(O)c4ncccc24)C(=O)N(Cc2ccc(F)cc2)C3)CC1)OCC" Test system: Strand Transfer (Human immunodeficiency virus type 1 group M subtype B) Read-out: IC50 Value: ?
a: < 600 nM
